Measured values drawn from the EternaBench riboswitch data for this set.

tested on: MS2 coat protein; assay: apparent Kd, MS2 coat protein; higher = weaker binding; RNA-MaP array; FMN 200 µM where present; conditions: ligand present: flavin mononucleotide; designed as: OFF switch for flavin mononucleotide
The recorded apparent Kd of each item maps onto one of these classes: 1 (below 30 nM), 2 (30 nM to below 60 nM), 3 (60 nM or more)

q: Using the reported apparent Kd, which band applies to GCGAAUAACGAGGAUAUCGUAUCGGAAACGAUACGAGAAGGUGUAACAUGAGGAUCACCCAUGUUCCUCAACGC ?
a: 2

q: Using the reported apparent Kd, which band applies to GUCAGCUCGUGAGGAUAUACAUGUGCUGGAAACAGCAUUAAAUUUUUCACAUGAGGAUCACCCAUGUAGAAGGCACGAGCUGAU ?
a: 2

q: Using the reported apparent Kd, which band applies to AUUUAGAGAGGAUAUAUAAUGUGAAACAUGAGGAUCACCCAUGUAAUAUUAUGGAUGUAAAUAGAAGGCUCAUUUA ?
a: 1

q: Using the reported apparent Kd, which band applies to UUCAGACAUGAGGAUCACCCAUGUGAGGAUAUGAUGCGAUCGUCGAAAGACGAUAGCAUCAGAAGGCACGUAUG ?
a: 3

q: Using the reported apparent Kd, which band applies to CGCCUGCGUAGAAUUAGCAGCUGACAGGAUAUGACAUGAGGAUCACCCAUGUGAAUUAAGAAGAGUCAGAAGGGUCACGACGCG ?
a: 1

q: Using the reported apparent Kd, which band applies to UAAUAAAACGAUCGGCGGUCCAUACAUGAGGAUCACCCAUGUAGAAGGGACUCUACAAAGUAGAGUCAGGAUAUACAAGAUCGA ?
a: 3

q: Using the reported apparent Kd, which band applies to AAUAUGAGCUGGUUUAAAACCUAAACAUGAGGAUCACCCAUGUAGGAUAUCAGCACGAUAAGUGCUGAGAAGGACAUCCAGCUC ?
a: 1

q: Using the reported apparent Kd, which band applies to CUAUUACGAGGAUAUGAUUUAAAUAACAUGAGGAUCACCCAUGUUUUUACGUUAUUUUGUUUAGAAGGCGUAUUGU ?
a: 2

###

test system: MS2 coat protein; assay: apparent Kd, MS2 coat protein; higher = weaker binding; RNA-MaP array; FMN 200 µM where present; conditions: ligand present: flavin mononucleotide; designed as: OFF switch for flavin mononucleotide
observedProperty: apparent Kd

q: Endpoint output: apparent Kd of AUGAGUAAAGCAGGAUAUCUAUUGUCUCUGUAACAUGAGGAUCACCCAUGUAGAGAAGGGCUUAGUCAUUCUCUUCGGAGUUGU . Value?
a: 16.6 nM

q: Endpoint output: apparent Kd of GGUUGUCAUAGUCAUCCUUUCCGUACAUGAGGAUCACCCAUGUAGGAUAUGCUACUCACAGUGUAGCAGAAGGGCGUGUGUCUU . Value?
a: 17.6 nM

q: Endpoint output: apparent Kd of GUGCGGUAGGAGAAGGACGGAGGCUUCUUUACAUACAUGAGGAUCACCCAUGUAGGAUAUCCUACCUCACGCGGCCUCCUUCUG . Value?
a: 5.5 nM
